B1: H2-Kb / Ed16-1 (parent complex)
chain 1: GEQVEQRPPHLSVREGDSAVITCTYTDPNSYYFFWYKQEPGASLQLLMKVFSSTEINEGQGFTVLLNKKDKRLSLNLTAAHPGDSAAYFCAVSGSNNRIFFGDGTQLVVKP
chain 2: EAAVTQSPRSKVAVTGGKVTLSCHQTNNHDYMYWYRQDTGHGLRLIHYSYVADSTEKGDIPDGYKASRPSQENFSLILELASLSQTAVYFCASRTGTDYTFGSGTRLLVI
chain 3: not shown
chain 4: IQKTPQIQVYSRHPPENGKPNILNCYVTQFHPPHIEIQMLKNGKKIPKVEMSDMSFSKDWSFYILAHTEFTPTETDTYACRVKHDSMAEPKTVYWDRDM
chain 5: SIINFEKL

Variants of: B1
TEST_METHOD_NOTES: % of reporter cells activated (NFAT-GFP), raw; note: test concentration or dose not given here
ENDPOINT: ratio to parent

| VARIANT_ANNOTATION | READOUT_NUMBER |
| --- | --- |
| chain 5 E6K | 0.608 |
| chain 5 K7N | 0.903 |
| chain 5 I2T | 0.926 |
